Assay: Stat Signaling Pathway (AID 446);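 note: ME-180 cervical cancer cells given 40 pM IL-6 alongside compound; SIE-controlled beta-lactamase reporter measured as 460/530 nm FRET emission ratio; % is set by controls: 0 for no effect and ±100 for the full control effect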
Conditions: ME-180 (cervical carcinoma) SIE beta-lactamase reporter, IL-6 stimulated, 5 h; at 7.69 µM (top of the series) unless noted
Records with an inconclusive call do not appear.

{"test_smiles": "c1ccc(CNc2ncnc3ccc(-c4cccnc4)cc23)cc1", "activity, negative = inhibition, %": -1.78}
{"test_smiles": "Fc1ccc(Nc2ncncc2-c2ccoc2)cc1", "activity, negative = inhibition, %": 4.97}
{"test_smiles": "COCCNc1ncnc2ccc(-c3ccccc3C)cc12", "activity, negative = inhibition, %": -16.2}
{"test_smiles": "N#Cc1cccc(-c2nc(N3CCNCC3)c3ccccc3n2)c1", "activity, negative = inhibition, %": 11.7}
{"test_smiles": "COC(=O)N1CCC[C@@]2(CCN(C(=O)Nc3cccc(F)c3)C2)C1", "activity, negative = inhibition, %": 1.62}
{"test_smiles": "COC(=O)N1CCC[C@@]2(CCN(C(=O)Nc3cccc(C#N)c3)C2)C1", "activity, negative = inhibition, %": 6.31}
{"test_smiles": "COc1cccc(Cn2c(=O)c(-c3ccc(F)cc3)nc3cnc(OC)nc32)c1", "activity, negative = inhibition, %": 6.3}
{"test_smiles": "O=C(Oc1ccccc1)N1CCC[C@@]2(CCN(c3ncccn3)C2)C1", "activity, negative = inhibition, %": 9}
{"test_smiles": "CN(C)c1ccc(-c2nc(N(C)Cc3ccco3)c3ccccc3n2)cc1", "activity, negative = inhibition, %": 26.1}
{"test_smiles": "COc1ccc(NC(=O)N2CC3(CCN(C(=O)c4ccc(OC)cc4)CC3)C2)cc1", "activity, negative = inhibition, %": -5.3}
{"test_smiles": "N#Cc1cccc(NC(=O)N2CC[C@@]3(CCCNC3)C2)c1", "activity, negative = inhibition, %": -4.17}

---

Target: Cytochrome P450 1A2 (Homo sapiens)
Assay: p450-cyp1a2 (AID 410)
Conditions: recombinant CYP1A2, luciferin-ME demethylation, luminescence; series mostly up to 57 µM
Results filed as inconclusive are left out. Active and inactive are the calls of the source. Calls follow the shape of the full dose curve.
Outcomes: active, inactive

{"test_smiles": "CN(C)c1ccc(-c2cncnc2NCc2cccs2)cc1", "class_assignment": "active"}
{"test_smiles": "COc1ccc(C(=O)N2CCC[C@@]3(CCN(Cc4ccc(C#N)cc4)C3)C2)cc1", "class_assignment": "inactive"}
{"test_smiles": "N#Cc1cccc(-c2nc(N3CCNCC3)c3ccccc3n2)c1", "class_assignment": "active"}
{"test_smiles": "CC(=O)NCCNc1ncnc2ccc(-c3ccoc3)cc12", "class_assignment": "active"}
{"test_smiles": "COc1ccccc1CNc1ncncc1-c1cccc(C#N)c1", "class_assignment": "active"}
{"test_smiles": "CN(C)c1ncc2nc(-c3ccccc3)c(=O)n(Cc3ccc(F)cc3)c2n1", "class_assignment": "active"}

---

Tested on: TAB113
Assay: qHTS profiling for inhibitors of Plasmodium falciparum proliferation (AID 504749); note: nearly all actives have a fitted effect of over 60% in size
Conditions: P. falciparum in erythrocytes, SYBR Green DNA, 72 h; series mostly up to 28.7 µM
Results filed as inconclusive are left out. Activity calls are given as the source filed them. Calls follow the shape of the dose curve; as a rule, active = well fitted inhibition curve with a large enough effect; inconclusive = small, poorly fitted or top-dose-only effect; inactive = flat fitted curve, though single readings scatter.
Outcomes: Yes (active), No (inactive)

{"compound": "C=C1/C(=C\\C=C2/CCC[C@]3(C)[C@@H]([C@H](C)CCCC(C)(C)O)CC[C@@H]23)C[C@@H](O)C[C@@H]1O", "class_assignment": "No"}
{"compound": "Oc1ccc(/C=C\\c2cc(O)cc(O)c2)cc1", "class_assignment": "No"}
{"compound": "CC(/C=C1\\SC(=S)N(CC(=O)O)C1=O)=C\\c1ccccc1", "class_assignment": "No"}
{"compound": "CN=C(N)NCCCC(N)C(=O)O (configuration not stated)", "class_assignment": "No"}
{"compound": "COc1ccc(CCNC[C@@H](O)c2ccc(O)cc2)cc1OC", "class_assignment": "No"}
{"compound": "CO[C@H]1/C=C/O[C@@]2(C)Oc3c(C)c(O)c4c(O)c(c(/C=N\\N5CCN(C6CCCC6)CC5)c(O)c4c3C2=O)NC(=O)/C(C)=C\\C=C\\[C@H](C)[C@H](O)[C@@H](C)[C@@H](O)[C@@H](C)[C@H](OC(C)=O)[C@@H]1C", "class_assignment": "Yes"}
{"compound": "C[C@@]12C(=O)OC(=O)[C@]1(C)[C@H]1CC[C@@H]2O1", "class_assignment": "Yes"}
